study system: T1, human E-selectin extracellular domain with 10 His purification tail (human, UniProt P16581 22-556)
T1 construct: also called soluable human E-selectin extracellular domain; rhE-Selectin
T1 sequence: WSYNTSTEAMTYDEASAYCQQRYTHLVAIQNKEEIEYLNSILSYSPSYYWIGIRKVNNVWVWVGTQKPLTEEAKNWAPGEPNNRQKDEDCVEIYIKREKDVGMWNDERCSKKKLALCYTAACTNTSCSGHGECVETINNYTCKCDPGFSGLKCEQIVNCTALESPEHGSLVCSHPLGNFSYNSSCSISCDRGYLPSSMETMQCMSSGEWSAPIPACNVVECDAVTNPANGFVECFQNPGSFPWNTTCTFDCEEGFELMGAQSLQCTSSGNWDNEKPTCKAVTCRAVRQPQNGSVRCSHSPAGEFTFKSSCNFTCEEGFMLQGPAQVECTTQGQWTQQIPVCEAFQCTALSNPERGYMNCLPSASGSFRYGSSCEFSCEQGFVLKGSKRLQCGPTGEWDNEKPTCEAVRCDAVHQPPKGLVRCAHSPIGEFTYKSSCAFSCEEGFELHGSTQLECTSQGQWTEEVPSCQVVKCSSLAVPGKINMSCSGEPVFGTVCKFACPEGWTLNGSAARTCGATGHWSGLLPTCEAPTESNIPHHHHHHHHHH
assay procedure: SPR, antibody captured, E-selectin analyte
observed property: t½ (s)
Please reply with the bare figure in s and do not write the unit itself.

Data request: For the binder shown here, optimized anti-E-selectin antibody 1444 (antibody, human IgG1, kappa, V domains shown, effector-null human IgG1, kappa) VH: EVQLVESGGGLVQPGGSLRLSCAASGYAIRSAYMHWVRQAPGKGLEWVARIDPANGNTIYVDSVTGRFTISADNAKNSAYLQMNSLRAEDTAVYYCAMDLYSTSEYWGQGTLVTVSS VL: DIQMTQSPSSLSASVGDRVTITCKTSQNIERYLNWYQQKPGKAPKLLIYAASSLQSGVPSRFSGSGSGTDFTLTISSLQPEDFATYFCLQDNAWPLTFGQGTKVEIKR , give the reported t½.
Data returned: 42.7

Cited source: patent US20240076386A1
